# target: T1, Cynomolgus monkey CD8a (cynomolgus monkey)
# T1 construct: whole, on cells; On transfected HEK293F cells (full length) or natively on cynomolgus PBMC T cells; also called cynomolgus CD8a-FL; cynomolgus monkey CD8α
# assay-summary: flow cytometry, cynomolgus PBMC, PI-CD3+CD4- gate
measurement-kind: Kd (pM)
The answer is to be given in pM; state only the numeric part.

Q: Reported Kd, binder hzB7v41-xELL-Fc (Fc fusion, Homodimeric VHH-human IgG1 Fc xELL fusion) QVQLVQSGGGEVQPGGSLRLSCAASGFTFDDYAMSWVRQAPGKGLEWVSTITWDAGGTYYAAPVKGRFTISRDNAKNTVYLQMSSLRAEDTAVYYCAKGSPELQYDTWGQGTLVTVRPDKTHTCPPCPAPGGPSVFLFPPKPKDTLMISRTPEVTCVVVDVSHEDPEVKFNWYVDGVEVHNAKTKPREEQYNSTYRVVSVLTVLHQDWLNGKEYKCKVSNKALPAPIEKTISKAKGQPREPQVYTLPPSRDELTKNQVSLTCLVKGFYPSDIAVEWESNGQPENNYKTTPPVLDSDGSFFLYSKLTVDKSRWQQGNVFSCSVMHEALHNHYTQKSLSLSPGK : ____
A: 49.9
